Hi there, I'd appreciate the recorded ΔTm (N = C), in parentheses for every entry that follows.
System: single-stranded RNA:5′-r(ACGAGANCAUCC)-3′, N = C
Assay: Tm measurement with single-stranded RNA (base sequence identifying ability), N = C
Format: binding
Conditions: mismatch RNA N = C, difference from N = A

Provide only the value of recorded ΔTm (N = C), in parentheses for 5′-GGATGZTCTCGT-3′: modified oligonucleotide with one Z modification; Z not defined in the visible text (DNA GGATGTTCTCGT; Z modified nucleotide; misc_difference (6)..(6) ENA) -15 º C.

Provide only the value of recorded ΔTm (N = C), in parentheses for 5′-GGATGTTCTCGT-3′: unmodified (natural) oligonucleotide, SEQ ID NO: 1 (unmodified DNA) -14 º C.

Provide only the value of recorded ΔTm (N = C), in parentheses for 5′-GGATGXTCTCGT-3′: modified oligonucleotide with one X modification; X not defined in the visible text (DNA GGATGTTCTCGT; DNA oligonucleotide with modified nucleotide X, X not given here, further chemistry not given here) -15 º C.

Provide only the value of recorded ΔTm (N = C), in parentheses for 5′-GGATGYTCTCGT-3′: modified oligonucleotide with one Y modification; Y not defined in the visible text (DNA GGATGTTCTCGT; Y modified nucleotide; misc_difference (6)..(6) LNA) -14 º C.

---

System: single-stranded RNA:5′-r(ACGAGANCAUCC)-3′, N = C
Assay: Tm measurement with single-stranded RNA (base sequence identifying ability), N = C
Format: binding
Conditions: mismatch RNA N = C; 10 mM sodium phosphate buffer, 200 mM NaCl
MEASURED_ATTRIBUTE: Tm (N = C) (°C)
Give your result in °C as a bare value.

State measured Tm (N = C) of the substance 5′-GGATGZTCTCGT-3′: modified oligonucleotide with one Z modification; Z not defined in the visible text (DNA GGATGTTCTCGT; Z modified nucleotide; misc_difference (6)..(6) ENA) with single-stranded RNA:5′-r(ACGAGANCAUCC)-3′, N = C. 43

State measured Tm (N = C) of the substance 5′-GGATGXTCTCGT-3′: modified oligonucleotide with one X modification; X not defined in the visible text (DNA GGATGTTCTCGT; DNA oligonucleotide with modified nucleotide X, X not given here, further chemistry not given here) with single-stranded RNA:5′-r(ACGAGANCAUCC)-3′, N = C. 43

State measured Tm (N = C) of the substance 5′-GGATGYTCTCGT-3′: modified oligonucleotide with one Y modification; Y not defined in the visible text (DNA GGATGTTCTCGT; Y modified nucleotide; misc_difference (6)..(6) LNA) with single-stranded RNA:5′-r(ACGAGANCAUCC)-3′, N = C. 44

State measured Tm (N = C) of the substance 5′-GGATGTTCTCGT-3′: unmodified (natural) oligonucleotide, SEQ ID NO: 1 (unmodified DNA) with single-stranded RNA:5′-r(ACGAGANCAUCC)-3′, N = C. 38

---

Hi there, I'd appreciate the recorded Tm for every entry that follows.
Test system: double-stranded hairpin DNA: 5′-d(GGCAGAAGAAAAAGAGACGC)-C18 spacer-d(GCGTCTCTTTTTCTTCTGCC)-3′ (SEQ ID NO: 23)
Assay: Melting temperature (Tm) measurement, triple strand-forming ability, with double-stranded hairpin DNA
Format: binding
Details: triplex with double-stranded hairpin DNA; footnote: 10 mM sodium phosphate buffer (pH 7.0), 200 mM NaCl, 5 mM MgCl2
Give your result in °C as a bare value.

Provide only the value of recorded Tm for 5′ -TCTTCTTYTTCTCT-3′: modified oligonucleotide with one Y modification; C shows 2′-deoxy-5-methylcytidine (DNA TCTTCTTTTTCTCT; Y modified nucleotide; 5-methylcytidines; (2)..(2) 2′-Deoxy-5-methylcytidine; (5)..(5) 2′-Deoxy-5-methylcytidine; misc_difference (8)..(8) LNA; (11)..(11) 2′-Deoxy-5-methylcytidine; (13)..(13) 2′-Deoxy-5-methylcytidine) 37

Provide only the value of recorded Tm for 5′ -TCTTCTYYYTCTCT-3′: modified oligonucleotide with three consecutive Y modifications (DNA TCTTCTTTTTCTCT; three Y modified nucleotides; (2)..(2) 2′-Deoxy-5-methylcytidine; (5)..(5) 2′-Deoxy-5-methylcytidine; misc_difference (7)..(7) LNA; misc_difference (8)..(8) LNA; misc_difference (9)..(9) LNA; (11)..(11) 2′-Deoxy-5-methylcytidine; (13)..(13) 2′-Deoxy-5-methylcytidine) 46

Provide only the value of recorded Tm for 5′ -TCTTCXTXTXCTCT-3′: modified oligonucleotide with three separated X modifications (DNA TCTTCTTTTTCTCT; three X modified nucleotides; (2)..(2) 2′-Deoxy-5-methylcytidine; (5)..(5) 2′-Deoxy-5-methylcytidine; misc_difference (6)..(6) Me-TaNA; misc_difference (8)..(8) Me-TaNA; misc_difference (10)..(10) Me-TaNA; (11)..(11) 2′-Deoxy-5-methylcytidine; (13)..(13) 2′-Deoxy-5-methylcytidine) 53

Provide only the value of recorded Tm for 5′ -TCTTCTTXTTCTCT-3′: modified oligonucleotide with one X modification; C shows 2′-deoxy-5-methylcytidine (DNA TCTTCTTTTTCTCT; X modified nucleotide; 5-methylcytidines; (2)..(2) 2′-Deoxy-5-methylcytidine; (5)..(5) 2′-Deoxy-5-methylcytidine; misc_difference (8)..(8) Me-TaNA; (11)..(11) 2′-Deoxy-5-methylcytidine; (13)..(13) 2′-Deoxy-5-methylcytidine) 36

FYI, the data here is from patent US12534493B2.
